System: A549 NSCLC
method notes: NCI tumour cell line growth inhibition, 48 h

>  <compound>
COc1ccc(Nc2nc(N)c(C(=O)c3c[nH]c4ccccc34)s2)cc1

>  <assayed system>
A549 NSCLC

>  <unit of measurement>
µM

>  <value modifier>
>

>  <TGI>
61.3

$$$$
>  <compound>
CC1=C(C(=O)Nc2cccc(Cl)c2)C(c2ccccc2F)C(C(=O)Nc2cccc(Cl)c2)=C(C)N1

>  <assayed system>
A549 NSCLC

>  <unit of measurement>
µM

>  <value modifier>
=

>  <TGI>
40.6

$$$$
>  <compound>
O=C1C(c2ccccc2)=[N+]([O-])c2ccccc21

>  <assayed system>
A549 NSCLC

>  <unit of measurement>
µM

>  <value modifier>
=

>  <TGI>
48.7

$$$$
>  <compound>
CC(=O)OCC(OC(C)=O)C(OC(C)=O)C(OC(C)=O)C(=O)CNn1c(-c2ccccc2Cl)nc2ccccc2c1=O (centres undefined)

>  <assayed system>
A549 NSCLC

>  <unit of measurement>
µM

>  <value modifier>
>

>  <TGI>
100

$$$$
>  <compound>
CC[O-].CC[O-].O=S(=O)([O-])c1ccc([O-])c2ncccc12.O=S(=O)([O-])c1ccc([O-])c2ncccc12.[Ti+4]

>  <assayed system>
A549 NSCLC

>  <unit of measurement>
µM

>  <value modifier>
>

>  <TGI>
100

$$$$
>  <compound>
Cc1c(CN2CCN(C)CC2)c(CN2CCN(C)CC2)c(C)n1-c1ccc(Cl)cc1

>  <assayed system>
A549 NSCLC

>  <unit of measurement>
µM

>  <value modifier>
=

>  <TGI>
91.1

$$$$
>  <compound>
C[C@]12CCC(=O)[C@@H](CCC3=CC(=O)C=CC3=O)[C@@H]1CCC2=O

>  <assayed system>
A549 NSCLC

>  <unit of measurement>
µM

>  <value modifier>
>

>  <TGI>
54.5

$$$$
>  <compound>
NCCCCNc1ccc2c(=O)[nH][nH]c(=O)c2c1

>  <assayed system>
A549 NSCLC

>  <unit of measurement>
µM

>  <value modifier>
>

>  <TGI>
100

$$$$
>  <compound>
CCn1c2ccc(C(=O)CCCN3CCCCC3)cc2c2cc(C(=O)CCCN3CCCCC3)ccc21

>  <assayed system>
A549 NSCLC

>  <unit of measurement>
µM

>  <value modifier>
=

>  <TGI>
3.86

$$$$
>  <compound>
COc1ccccc1CN=C1Nc2ccncc2S(=O)(=O)N1c1ccccc1

>  <assayed system>
A549 NSCLC

>  <unit of measurement>
µM

>  <value modifier>
>

>  <TGI>
100

$$$$
>  <compound>
Cn1c(=O)c(-c2ccccc2)c(O)c2ccccc21

>  <assayed system>
A549 NSCLC

>  <unit of measurement>
µM

>  <value modifier>
>

>  <TGI>
100

$$$$
>  <compound>
Cc1cc(C)nc(NS(=O)(=O)c2ccc(Nc3c4ccccc4nc4c(C(=O)N5CCN(CCOS(C)(=O)=O)CC5)cccc34)cc2)n1

>  <assayed system>
A549 NSCLC

>  <unit of measurement>
µM

>  <value modifier>
>

>  <TGI>
100

$$$$
>  <compound>
NC(=S)NNc1c([N+](=O)[O-])cnn(-c2ccccc2)c1=O

>  <assayed system>
A549 NSCLC

>  <unit of measurement>
µM

>  <value modifier>
=

>  <TGI>
49.9

$$$$
>  <compound>
S=C(N/N=C\C(=N/NC(=S)N1CCCCC1)c1ccccc1)N1CCCCC1

>  <assayed system>
A549 NSCLC

>  <unit of measurement>
µM

>  <value modifier>
=

>  <TGI>
5.62

$$$$
>  <compound>
O=c1c(Cc2ccc(Cl)cc2)nnc2sc(-c3ccc(-c4ccc(F)c(Cl)c4)o3)nn12

>  <assayed system>
A549 NSCLC

>  <unit of measurement>
µM

>  <value modifier>
>

>  <TGI>
100

$$$$
>  <compound>
CN(C)CC1CCC/C(=C\c2ccc(OC(=O)c3ccc(Cl)cc3)cc2)C1=O (centres undefined)

>  <assayed system>
A549 NSCLC

>  <unit of measurement>
µM

>  <value modifier>
=

>  <TGI>
7.26

$$$$
>  <compound>
CC1C(NNc2ccccc2)Oc2cc3c(cc2C1c1ccccc1O)OCO3 (centres undefined)

>  <assayed system>
A549 NSCLC

>  <unit of measurement>
µM

>  <value modifier>
=

>  <TGI>
15.2

$$$$
>  <compound>
COc1ccc2c(c1)/C(=C\c1c(Cl)[nH]c3ccc(OC)cc13)C(=O)N2

>  <assayed system>
A549 NSCLC

>  <unit of measurement>
µM

>  <value modifier>
>

>  <TGI>
100

$$$$
>  <compound>
COC(=O)[C@]12CCC(C)[C@H](C)[C@H]1C1=CCC3[C@@]4(C)CC[C@H](OC(C)=O)C(C)(C)C4CC[C@@]3(C)C1(C)C(O)C2 (some centres undefined)

>  <assayed system>
A549 NSCLC

>  <unit of measurement>
µM

>  <value modifier>
>

>  <TGI>
100

$$$$
